Task for the reader: assign each of the following compounds its reported inhibition at 10 µM.
- TESTED SYSTEM: Recombinant full length human CBS (Homo sapiens)
- PROTOCOL DETAILS: Methylene blue assay of CBS-derived H2S
- Type: biochemical
- TEST PARAMETERS: read-out: % inhibition of CBS-induced methylene blue signal
Give bare numbers, in %.

// below: answered compounds
Oc1c(Cl)cc(Cl)c(Cl)c1Cc1c(O)c(Cl)cc(Cl)c1Cl.Oc1c(Cl)cc(Cl)c(Cl)c1Cc1c(O)c(Cl)cc(Cl)c1Cl [Hexachlorophene] :: 21
O=C(OC[C@H]1O[C@@H](OC(=O)c2cc(O)c(O)c(OC(=O)c3cc(O)c(O)c(O)c3)c2)[C@H](OC(=O)c2cc(O)c(O)c(OC(=O)c3cc(O)c(O)c(O)c3)c2)[C@@H](OC(=O)c2cc(O)c(O)c(OC(=O)c3cc(O)c(O)c(O)c3)c2)[C@@H]1OC(=O)c1cc(O)c(O)c(OC(=O)c2cc(O)c(O)c(O)c2)c1)c1cc(O)c(O)c(OC(=O)c2cc(O)c(O)c(O)c2)c1 [Tannic acid] :: 24
O=C(O)C1=CC(=C(c2ccc(O)c(C(=O)O)c2)c2ccc(O)c(C(=O)O)c2)C=CC1=O [Aurintricarboxylic acid] :: 38

# inhibition at 10 µM measured on Recombinant full length human CBS (Homo sapiens) for item Cn1ncnc2c(=O)n(C)c(=O)nc1-2 [NSC67078] = 73

###

- TESTED SYSTEM: Recombinant full length human CBS (Homo sapiens, UniProt P35520)
- Sequence (P35520 1-551): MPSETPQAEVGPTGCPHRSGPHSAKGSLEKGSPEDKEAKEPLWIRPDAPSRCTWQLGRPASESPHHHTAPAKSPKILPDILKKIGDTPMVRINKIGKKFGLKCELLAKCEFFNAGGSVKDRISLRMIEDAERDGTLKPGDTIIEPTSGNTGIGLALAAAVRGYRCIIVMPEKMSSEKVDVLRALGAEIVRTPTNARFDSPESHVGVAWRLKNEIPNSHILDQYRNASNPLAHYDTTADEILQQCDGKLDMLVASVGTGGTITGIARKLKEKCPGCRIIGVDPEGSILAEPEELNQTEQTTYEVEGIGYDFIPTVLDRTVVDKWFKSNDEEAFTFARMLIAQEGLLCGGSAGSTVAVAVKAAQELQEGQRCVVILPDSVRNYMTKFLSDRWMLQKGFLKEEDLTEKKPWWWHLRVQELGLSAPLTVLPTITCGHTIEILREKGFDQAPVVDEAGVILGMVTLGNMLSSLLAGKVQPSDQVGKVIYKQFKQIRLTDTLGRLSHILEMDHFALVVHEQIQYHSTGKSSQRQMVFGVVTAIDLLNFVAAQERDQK
- PROTOCOL DETAILS: AzMC fluorescence assay of CBS-derived H2S production
- Type: biochemical
- TEST PARAMETERS: read-out: IC50, inhibition of recombinant CBS (CBS-induced AzMC fluorescence); cell-free, 2 mM L-cysteine and homocysteine
MEASUREMENT LABEL: IC50

// below: answered molecules
[Cl][Cu][Cl] [CuCl2, copper(II) chloride] :: ~200 nM
O=[N+]([O-])[O-].O=[N+]([O-])[O-].[Cu+2] [Cu(NO2)2, copper(II) nitrate] :: ~200 nM

For record CC(=O)[O-].CC(=O)[O-].[Cu+2] [CuAc, copper(II) acetate] the listed IC50 is ~200 nM
